Test: chemical genetic growth profiling, strain panel (AID 1159580);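 also: tested at 20 µM; growth read once vehicle control cultures reached saturation at 30 °C; 1 = growth at the plate median or of vehicle wells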
Conditions: S. cerevisiae deletion strains, growth OD, locus YIL125W, strain kgd1
About 2,000 (36%) of roughly 5,500 compounds were called active. Not shown: some 18% with an inconclusive outcome. Rule as the data show it: active = normalized growth mostly below about 0.91 (no sharp cut-off); inconclusive = no clear call, values can overlap the other calls; inactive = mostly above about 0.92. This is one part of the list. Where a SMILES comes first, the peptide text is derived from it. Side-chain parts run from the residue outwards. [ ]: non-standard residue; d: D form. The star is where a group is joined. X1 = CCC(C)C(N)C1=NC(C(=O)*)CS1; Orn = NCCC[CH](N)C(=O)O
Can you answer with just one of these options? active, inactive

Recorded results for 10 compounds are shown here.
Compound	Label Value
NCC1OC(OC2C(CO)OC(OC3C(O)C(N)CC(N)C3OC3OC(CO)C(O)CC3N)C2O)C(N)C(O)C1OC1OC(CO)C(O)C(O)C1O (configuration not stated)	inactive
CCOc1ccc(C(=O)c2cc(O)c(OC)c(OC)c2O)cc1	inactive
COc1ccc(C(=O)c2ccc(O)cc2)c(O)c1O	inactive
NC(=O)N1c2ccccc2C=Cc2ccccc21	inactive
Cc1ccc(N(CC2=NCCN2)c2cccc(O)c2)cc1	inactive
Cc1cc(C(C)(C)C)cc(C)c1CC1=NCCN1	inactive
CCOc1ccc(C(=O)c2ccc(O)c(O)c2O)cc1	inactive
CNC(Cc1c[nH]c2ccccc12)C(=O)O (configuration not stated)	inactive
C1CCC(C(CC2CCCCN2)C2CCCCC2)CC1 (configuration not stated)	inactive
CC(=O)OCC1=C(C(=O)O)N2C(=O)[C@@H](NC(=O)CCCC(N)C(=O)O)C2SC1 (some centres not stated)	inactive

What call does the record list for `COc1cccc(O)c1O` ? inactive

Next entry: `CCCCc1nc(Cl)c(CO)n1Cc1ccc(-c2ccccc2-c2nn[nH]n2)cc1` inactive

Next entry: `CCOc1ccc(NC(C)=O)cc1` inactive

Next entry: CCC(C)C(N)C1=NC(C(=O)NC(CC(C)C)C(=O)NC(CCC(=O)O)C(=O)NC(C(=O)NCCCCC2NC(=O)C(CC(N)=O)NC(=O)C(CC(=O)O)NC(=O)C(Cc3cnc[nH]3)NC(=O)C(Cc3ccccc3)NC(=O)C(C(C)CC)NC(=O)C(CCCN)NC2=O)C(C)CC)CS1 (stereo not drawn) (cyclo(DNK([Ile-Glu-Leu-X1])[Orn]IFH); configuration not given here) inactive

Next entry: CC[C@H]1CN2CCc3cc(OC)c(OC)cc3C2C[C@@H]1CC1NCCc2cc(OC)c(OC)cc21 (some centres not stated) inactive

Next entry: `Cc1cc(=O)n(-c2ccccc2)n1C` inactive

Next entry: `CN1CCN(CC(=O)N2c3ccccc3C(=O)Nc3cccnc32)CC1` inactive

Next entry: `COc1ccc(C(=O)O)c(O)c1OC` inactive

====

Assay: chemical genetic growth profiling, strain panel (AID 1159580)
Details: S. cerevisiae deletion strains, growth OD, locus YOR184W, strain ser1
The whole screen tested about 5,500 compounds, of which about 2,000 (36%) were called active. About 18% were inconclusive and are not listed. Rule as the data show it: active = normalized growth mostly below about 0.91 (no sharp cut-off); inconclusive = no clear call, values can overlap the other calls; inactive = mostly above about 0.92. Some of the results follow.
Can you answer with just one of these options? 1 (active), -1 (inactive)

>>> print(df.to_string())
                                   compound  label_value
0  C=C(C)[C@@H]1CC[C@]2(CO)CC[C@]3(C)[C@H](CCC4[C@@]5(C)CC[C@H](O)C(C)(C)C5CC[C@]43C)C12 (some centres not stated)           -1

Alright, here's another compound for you.
What call does the record list for `COc1cc2cc3c4cc(OC)c(OC)cc4cc[n+]3c(C)c2cc1OC` ? -1

====

Test: chemical genetic growth profiling, strain panel (AID 1159580);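 also: tested at 20 µM; growth read once vehicle control cultures reached saturation at 30 °C; 1 = growth at the plate median or of vehicle wells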
Conditions: S. cerevisiae deletion strains, growth OD, locus YPR167C, strain met16
The whole screen tested about 5,500 compounds, of which about 2,000 (36%) were called active. About 18% were inconclusive and are not listed. No stated cut-off is given here; in the data, active means normalized growth mostly below about 0.91 (no sharp cut-off); inconclusive means no clear call, values can overlap the other calls; inactive means mostly above about 0.92. This is one part of the list. *1 amine or outer side, *2 acyl side, *3 side chain or, on linkers, in order; H or OH if unused. Where a SMILES comes first, the peptide text is derived from it. Bridges are numbered along the chain shown (N, C = ends). [ ]: non-standard residue; d: D form. The star is where a group is joined. ξ: configuration not given here. ΔAla(E,3-NHCONH2) = NC(=O)N/C=C(/N)C(=O)O; X2 = NC1=NCCC(C(N[*:1])C(=O)[*:2])N1; ξβ3hOrn = NCCCC(N)CC(=O)*; Dap = NC[CH](N)C(=O)O
Can you answer with just one of these options? yes (1) (active), no (0) (inactive)

Recorded results for 3 compounds are shown here.
Compound	Label Value
NCCCC(N)CC(=O)NCC1NC(=O)C(CO)NC(=O)C(N)CNC(=O)C(C2CCN=C(N)N2)NC(=O)/C(=C\NC(N)=O)NC1=O (stereo not drawn) (H-[Dap]S[Dap](ξβ3hOrn)[ΔAla(E,3-NHCONH2)][X2]; lactam 1-C; configuration not given here)	no (0)
O=C(OC[C@H]1O[C@H](OC(=O)c2cc(O)c(O)c(OC(=O)c3cc(O)c(O)c(O)c3)c2)[C@H](OC(=O)c2cc(O)c(O)c(OC(=O)c3cc(O)c(O)c(O)c3)c2)[C@@H](OC(=O)c2cc(O)c(O)c(OC(=O)c3cc(O)c(O)c(O)c3)c2)[C@@H]1OC(=O)c1cc(O)c(O)c(OC(=O)c2cc(O)c(O)c(O)c2)c1)c1cc(O)c(O)c(OC(=O)c2cc(O)c(O)c(O)c2)c1	yes (1)
NC[C@H]1O[C@H](O[C@H]2[C@H](O)[C@@H](O[C@H]3O[C@H](CO)[C@@H](O)[C@H](N)[C@H]3O)[C@H](N)C[C@@H]2N)[C@H](N)C[C@@H]1O	no (0)

What call does the record list for C[C@]12CCC(=O)C=C1CCC1C2[C@@H](O)C[C@@]2(C)C1CC[C@]2(O)C(=O)COC(=O)CCC(=O)O (some centres undefined) ? no (0)

====

Assay: chemical genetic growth profiling, strain panel (AID 1159580);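 also: tested at 20 µM; growth read once vehicle control cultures reached saturation at 30 °C; 1 = growth at the plate median or of vehicle wells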
Conditions: S. cerevisiae deletion strains, growth OD, locus YAL040C, strain CLN3, stronger effect = lower value
Hit rate of the full screen: of about 5,500 compounds, about 2,000 (36%) were called active. Not shown: some 18% with an inconclusive outcome. Some of the results follow.
Hi! Just check whether normalized growth is below 1. Below gives criterion met, equal or above gives criterion not met.

>>> df
                                   compound    label_value
0  C#C[C@]1(O)CC[C@H]2[C@@H]3CCC4=Cc5oncc5CC4(C)[C@H]3CCC21C (stereo partly drawn)  criterion met

Lab note: normalized growth threshold 1. Does this compound come in strictly under it? O=C(O)CC1CCCc2ccccc2C1O (stereo not drawn) criterion not met

Next entry: `NC(N)=NC(N)=Nc1ccccc1` criterion not met

Next entry: `CCN(CC)C(=O)N[C@@H]1C=C2c3cccc4[nH]cc(c34)C[C@H]2N(C)C1` criterion not met

Next entry: CN1C(=O)CCS(=O)(=O)C1c1ccc(Cl)cc1 (stereo not drawn) criterion not met

Next entry: `OCCN1CCN(CC/C=C2/c3ccccc3Sc3ccc(C(F)(F)F)cc32)CC1` criterion not met

====

Assay: chemical genetic growth profiling, strain panel (AID 1159580);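 also: tested at 20 µM; growth read once vehicle control cultures reached saturation at 30 °C; 1 = growth at the plate median or of vehicle wells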
Settings: S. cerevisiae deletion strains, growth OD, locus YOR061W, strain CKA2, stronger effect = lower value
Screen size: about 5,500 compounds; about 2,000 (36%) were called active. Another 18% or so got no clear call; they are omitted. The list shows a part of the results. *1 amine or outer side, *2 acyl side, *3 side chain or, on linkers, in order; H or OH if unused. Where a SMILES comes first, the peptide text is derived from it. Bridges are numbered along the chain shown (N, C = ends). [ ]: non-standard residue; d: D form. The star is where a group is joined. ξ: configuration not given here. ΔAla(E,3-NHCONH2) = NC(=O)N/C=C(/N)C(=O)O; X2 = NC1=NCCC(C(N[*:1])C(=O)[*:2])N1; ξβ3hOrn = NCCCC(N)CC(=O)*; Dap = NC[CH](N)C(=O)O
Property Measured: normalized growth
Could you respond with only the numeric value?

Compound	normalized growth
S=C(Nc1ccc(Cl)cc1)Nc1ccc(Cl)cc1	0.808
Cc1ccc(N(CC2=NCCN2)c2cccc(O)c2)cc1	1.02
NCCCC(N)CC(=O)NCC1NC(=O)C(CO)NC(=O)C(N)CNC(=O)C(C2CCN=C(N)N2)NC(=O)/C(=C\NC(N)=O)NC1=O (stereo not drawn) (H-[Dap]S[Dap](ξβ3hOrn)[ΔAla(E,3-NHCONH2)][X2]; lactam 1-C; configuration not given here)	1.01
COc1ccc2c(c1)[C@]13CCCC[C@H]1[C@H](C2)N(C)CC3	1.02

// returns reported normalized growth for input `Cc1cc(C(C)(C)C)cc(C)c1CC1=NCCN1` 1.01

Next entry: `CC(C)(C)c1ccc(C(=O)NNC(=S)Nc2ccc(Cl)cc2)cc1` 0.969

Next entry: `O=C(Nc1cc2c(s1)-c1cc(Cl)ccc1SC2)Oc1ccccc1` 0.934

Next entry: `O=C(Nc1cccnc1)c1cc2c(s1)-c1ccccc1CC2` 0.806

Next entry: `Cc1cc(C(C)(C)C)c(O)c(C)c1CC1=NCCN1` 1

Next entry: CCCCCCCCCCCCCCCCCCOCC(O)CO (stereo not drawn) 1

Next entry: `O=C(c1cc2c(s1)-c1ccccc1CC2)N1CCN(Cc2ccccc2)CC1` 1

Next entry: COP(=O)(OC)OC(Br)C(Cl)(Cl)Br (stereo not drawn) 0.973

Next entry: `CC(=O)c1ccccc1C(=O)c1ccc(C(C)(C)C)cc1` 0.975
